Sourced from patent US20240025883A1

molecular target: human GPR17 short isoform (Homo sapiens (Human)); test: GPR17 cAMP assay (hGPR17 cAMP, antagonist mode against EC80 of MDL29,951); conditions: CHO-K1 cells stably expressing human GPR17 short isoform; EC80 of agonist MDL29,951; forskolin 15 μM
Labelling: IC50 reported below 80 nM becomes 1; at or above becomes -1.

**Query** Below 80 nM on IC50? Entry `COc1nc(NS(=O)(=O)c2c[nH]c3cc(F)ccc23)nc(OC)c1CCC#N`
**Result** 1

**Query** Below 80 nM on IC50? Entry `COc1nc(NS(=O)(=O)c2c[nH]c3cc(Cl)ccc23)nc(F)c1Br`
**Result** -1

**Query** Below 80 nM on IC50? Entry `COc1nc(NS(=O)(=O)c2c[nH]c3c(OC)c(Br)ccc23)ncc1CC(F)F`
**Result** 1

**Query** Below 80 nM on IC50? Entry `CCc1cnc(NS(=O)(=O)c2c[nH]c3cc(Cl)ccc23)nc1OC`
**Result** -1

**Query** Below 80 nM on IC50? Entry `COc1nc(NS(=O)(=O)c2c[nH]c3cc(Cl)ccc23)nc(OC)c1CCC#N`
**Result** 1

**Query** Below 80 nM on IC50? Entry `COc1nc(NS(=O)(=O)c2c[nH]c3cc(C(F)F)ccc23)ncc1OC(F)(F)CF`
**Result** -1

---

Below: a set of entries, each annotated with reported log10 IC50.
biological target: human GPR17 short isoform (Homo sapiens (Human), UniProt Q13304); assay: GPR17 cAMP assay (hGPR17 cAMP, antagonist mode against EC80 of MDL29,951); settings: CHO-K1 cells stably expressing human GPR17 short isoform; EC80 of agonist MDL29,951; forskolin 15 μM
Sequence (Q13304 29-367): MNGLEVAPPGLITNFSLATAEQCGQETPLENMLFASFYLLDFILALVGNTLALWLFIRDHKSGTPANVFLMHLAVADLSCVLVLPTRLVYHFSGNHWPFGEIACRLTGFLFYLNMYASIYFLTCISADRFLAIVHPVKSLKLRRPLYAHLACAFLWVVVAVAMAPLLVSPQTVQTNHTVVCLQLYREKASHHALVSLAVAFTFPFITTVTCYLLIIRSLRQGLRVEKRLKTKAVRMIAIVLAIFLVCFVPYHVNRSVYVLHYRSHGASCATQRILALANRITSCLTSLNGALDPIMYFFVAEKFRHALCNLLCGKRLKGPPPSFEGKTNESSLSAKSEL
Each number you see is log10 of IC50, and the unit inside the log is nM.

**Query** Please give the measured log10 IC50 for this compound: `CCOc1nc(NS(=O)(=O)c2c[nH]c3cc(Cl)ccc23)nc(OC)c1Br`
**Result** 2.37

---

Below: a set of entries, each annotated with reported log10 of IC50.
target: human GPR17 short isoform (Homo sapiens (Human), UniProt Q13304); assay: GPR17 cAMP assay (hGPR17 cAMP, antagonist mode against EC80 of MDL29,951); details: CHO-K1 cells stably expressing human GPR17 short isoform; EC80 of agonist MDL29,951; forskolin 15 μM
Each number you see is log10 of IC50, and the unit inside the log is nM.

Solved entries (count: 5):
| Molecule | log10 of IC50 |
| --- | --- |
| CCc1c(OC)nc(NS(=O)(=O)c2c[nH]c3cc(Cl)ccc23)nc1OC [Example 16] | 1.36 |
| COc1nc(NS(=O)(=O)c2c[nH]c3c(C#N)c(Cl)ccc23)ncc1CC(F)F [Example 223] | 1.60 |
| COc1nc(NS(=O)(=O)c2c[nH]c3nc(Cl)ccc23)nc(OC)c1C [Example 118] | 1.52 |
| COc1nc(NS(=O)(=O)c2c[nH]c3c(C(F)F)c(Cl)ccc23)ncc1CCC(F)F [Example 209] | 1.83 |
| COc1nc(NS(=O)(=O)c2c[nH]c3cc(Cl)ccc23)ncc1C#CC1COC1 [Example 180] | 2.48 |

**Query** Please give the measured log10 of IC50 for this molecule: COc1nc(NS(=O)(=O)c2c[nH]c3nc(Br)ccc23)ncc1OCCF [Example 230]
**Result** 1.61

**Query** Please give the measured log10 of IC50 for this molecule: COc1nc(NS(=O)(=O)c2c[nH]c3cc(Cl)ccc23)nc(OC)c1CC#N [Example 67]
**Result** 1.81

---

molecular target: human GPR17 short isoform (Homo sapiens (Human), UniProt Q13304); assay: GPR17 cAMP assay (hGPR17 cAMP, antagonist mode against EC80 of MDL29,951); conditions: CHO-K1 cells stably expressing human GPR17 short isoform; EC80 of agonist MDL29,951; forskolin 15 μM
Experimental Endpoint: pIC50
Reminder that pIC50 is minus the log10 of a molar concentration.

Solved entries (count: 3):
| Compound | Experimental Endpoint | Numeric Readout |
| --- | --- | --- |
| COc1nc(NS(=O)(=O)c2c[nH]c3c(Br)cccc23)ncc1CC(F)F [Example 129] | pIC50 | 6.02 |
| COc1nc(NS(=O)(=O)c2c[nH]c3c(F)c(Cl)ccc23)nc(OC)c1CCC#N [Example 218] | pIC50 | 7.85 |
| COCCc1c(OC)nc(NS(=O)(=O)c2c[nH]c3cc(Cl)ccc23)nc1OC [Example 66] | pIC50 | 7.72 |

Consider now this further compound.
**Query** Please give the measured pIC50 for this compound: COc1nc(NS(=O)(=O)c2c[nH]c3nc(Cl)ccc23)nc(OC)c1OCCF [Example 221]
**Result** 7.19

---

Below: a set of entries, each annotated with reported pIC50.
molecular target: human GPR17 short isoform (Homo sapiens (Human)); assay: GPR17 cAMP assay (hGPR17 cAMP, antagonist mode against EC80 of MDL29,951); conditions: CHO-K1 cells stably expressing human GPR17 short isoform; EC80 of agonist MDL29,951; forskolin 15 μM
Reminder that pIC50 is minus the log10 of a molar concentration.

Solved entries (count: 4):
| Molecule | Numeric Readout |
| --- | --- |
| COc1nc(NS(=O)(=O)c2c[nH]c3nc(Cl)ccc23)nc(OC)c1OC(F)(F)CF [Example 171] | 7.05 |
| COc1nc(NS(=O)(=O)c2c[nH]c3cc(Cl)ccc23)nc(OCF)c1Br [Example 83] | 7.11 |
| COc1nc(NS(=O)(=O)c2c[nH]c3c(F)c(C(F)F)ccc23)nc(OC)c1OCC#N [Example 253] | 7.70 |
| COc1nc(NS(=O)(=O)c2c[nH]c3c(SC(F)F)c(Cl)ccc23)ncc1CC(F)F [Example 199] | 8.10 |

Consider now this further molecule.
**Query** Please give the measured pIC50 for this molecule: COc1nc(NS(=O)(=O)c2csc3cc(Cl)ccc23)ncc1OCCF [Example 24]
**Result** 7.29

---

biological target: human GPR17 short isoform (Homo sapiens (Human)); test: GPR17 cAMP assay (hGPR17 cAMP, antagonist mode against EC80 of MDL29,951); conditions: CHO-K1 cells stably expressing human GPR17 short isoform; EC80 of agonist MDL29,951; forskolin 15 μM
Labelling: IC50 reported below 100 nM becomes class 1; at or above becomes class 0.

| Smiles String | Category |
| --- | --- |
| COc1nc(NS(=O)(=O)c2c[nH]c3cc(Cl)ccc23)nc(OC)c1CC(C)(F)F | class 0 |
| COc1nc(NS(=O)(=O)c2c[nH]c3cc(Cl)ccc23)ncc1OC(C)(F)F | class 0 |
| COc1nc(NS(=O)(=O)c2c[nH]c3nc(Cl)ccc23)ncc1OC(F)F | class 0 |
| COc1nc(NS(=O)(=O)c2csc3nc(Br)ccc23)ncc1CCC#N | class 0 |
| COc1nc(NS(=O)(=O)c2c[nH]c3nc(C(F)F)ccc23)nc(OC)c1CC(F)F | class 1 |

**Query** Below 100 nM on IC50? Entry `COc1nc(NS(=O)(=O)c2c[nH]c3nc(C)ccc23)nc(OC)c1OCCF`
**Result** class 0

**Query** Below 100 nM on IC50? Entry `COc1nc(NS(=O)(=O)c2c[nH]c3c(Br)c(Cl)ccc23)ncc1CC(F)F`
**Result** class 1

**Query** Below 100 nM on IC50? Entry `COc1nc(NS(=O)(=O)c2c[nH]c3nc(Br)ccc23)nc(OC)c1Br`
**Result** class 1

**Query** Below 100 nM on IC50? Entry `COc1nc(NS(=O)(=O)c2c[nH]c3c(F)c(Br)ccc23)ncc1OCCF`
**Result** class 1

**Query** Below 100 nM on IC50? Entry `COc1nc(NS(=O)(=O)c2c[nH]c3cc(C4COC4)ccc23)ncc1CC(F)F`
**Result** class 0

**Query** Below 100 nM on IC50? Entry `COc1nc(NS(=O)(=O)c2c[nH]c3cc(Br)ccc23)ncc1OCC(F)F`
**Result** class 0

---

biological target: human GPR17 short isoform (Homo sapiens (Human)); assay: GPR17 cAMP assay (hGPR17 cAMP, antagonist mode against EC80 of MDL29,951); assay type: cell-based; settings: CHO-K1 cells stably expressing human GPR17 short isoform; EC80 of agonist MDL29,951; forskolin 15 μM
Experimental Endpoint: log10(IC50) (log10 of the value in nM)
Each number you see is log10 of IC50, and the unit inside the log is nM.

Solved entries (count: 3):
| Compound | log10(IC50) |
| --- | --- |
| COc1nc(NS(=O)(=O)c2c[nH]c3c(F)c(C(F)F)ccc23)nc(OC)c1CC(F)F | 1.34 |
| COc1nc(NS(=O)(=O)c2c[nH]c3c(F)c(Br)ccc23)nc(OC)c1OCC#N | 1.20 |
| COc1nc(NS(=O)(=O)c2c[nH]c3nc(Br)ccc23)nc(OC)c1OCCF | 1.56 |

Consider now this further compound.
**Query** Please give the measured log10(IC50) for this compound: `COc1nc(NS(=O)(=O)c2c[nH]c3c(C#N)c(Cl)ccc23)ncc1OCCF`
**Result** 1.79
